Attribution: patent US20200332017A1

List of absorbance at 450 nm values.
- tgt: T1, human CD40-Fc protein (amino acid residue 21-193 of SEQ ID NO: 67 linked to N-terminus of amino acid residue … (human, biotin-labeled in the capture ELISA and in the benchmark blocking ELISA; unlabeled when coated in the ligand blocking ELISA)
- T1 construct: also called biotin-labeled human CD40-Fc; human CD40-Fc-biotin
- assay-remarks: capture ELISA, biotin human CD40-Fc; mAb at 3.2 ng/mL
property-label: absorbance at 450 nm (OD450)

binder="chimeric antibody C1C1 (antibody, human IgG1, kappa, V domains shown, also called chC1C1; chimeric C1C1) VH: EVKLVESGGGLVKPGASLKLSCAASGFTFSNYGMSWVRQNSDKRLEWVASISSGGDDTYYPDNVKGRCTISRENAKNTLYLEMSSLKTEDTALYYCTRAGGKAMDYWGQGTSVTVST VL: DIVLTQSPATLSVIPGNSVSLSCRASQSIRDNLHWYQQKSHESPRLLINYASQSISGIPSRFSGSGSGTDFTLTINSVETEDFGIYFCQQFNSWPLTFGGGTKLELKR" reported_measurement=0.082
binder="humanized antibody huC1C1-V5 (antibody, human IgG1, kappa, V domains shown, Human IgG1/kappa; also called humanized C1C1-V5) VH: EVQLVESGGGVVQPGRSLRLSCAASGFTFSNYGMSWVRQAPGKGLEWVASISSGGDDTYYPDNVKGRCTISRDNSKNTLYLQMNSLRAEDTAVYYCTRAGGKAMDYWGQGTLVTVSS VL: EIVLTQSPATLSLSPGERATLSCRASQSIRDNLHWYQQKPGQSPRLLINYASQSISGIPARFSGSGSGTDFTLTISSLEPEDFAVYYCQQFNSWPLTFGQGTKVEIKR" reported_measurement=0.083
binder="humanized antibody huC1C1-V1 (antibody, human IgG1, kappa, V domains shown, Human IgG1/kappa; also called humanized C1C1-V1) VH: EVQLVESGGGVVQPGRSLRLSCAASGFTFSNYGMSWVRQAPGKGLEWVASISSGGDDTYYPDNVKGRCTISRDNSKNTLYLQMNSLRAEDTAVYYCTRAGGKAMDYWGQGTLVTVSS VL: EIVLTQSPATLSLSPGERATLSCRASQSIRDNLHWYQQKPGQSPRLLINYASQSISGIPARFSGSGSGTDFTLTISSLEPEDFAVYFCQQFNSWPLTFGQGTKVEIKR" reported_measurement=0.083
binder="humanized antibody huC1C1-V4 (antibody, human IgG1, kappa, V domains shown, Human IgG1/kappa) VH: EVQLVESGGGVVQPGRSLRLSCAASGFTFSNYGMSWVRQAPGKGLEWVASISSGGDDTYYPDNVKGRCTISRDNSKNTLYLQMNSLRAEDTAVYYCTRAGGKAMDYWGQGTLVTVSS VL: EIVLTQSPATLSLSPGERATLSCRASQSIRDNLHWYQQKPGQSPRLLIYYASQSISGIPARFSGSGSGTDFTLTISSLEPEDFAVYFCQQFNSWPLTFGQGTKVEIKR" reported_measurement=0.103
binder="humanized antibody huC1C1-V2 (antibody, human IgG1, kappa, V domains shown, Human IgG1/kappa) VH: EVQLVESGGGVVQPGRSLRLSCAASGFTFSNYGMSWVRQAPGKGLEWVASISSGGDDTYYPDNVKGRFTISRDNSKNTLYLQMNSLRAEDTAVYYCTRAGGKAMDYWGQGTLVTVSS VL: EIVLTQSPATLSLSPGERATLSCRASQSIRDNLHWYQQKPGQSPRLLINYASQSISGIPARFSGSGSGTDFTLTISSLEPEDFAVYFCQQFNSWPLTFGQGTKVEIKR" reported_measurement=0.073
binder="mouse anti-CD40 monoclonal antibody C1C1 (antibody, V domains shown, those are used here for the chimeric antibody only; also called Mouse C1C1; mouse C1C1) VH: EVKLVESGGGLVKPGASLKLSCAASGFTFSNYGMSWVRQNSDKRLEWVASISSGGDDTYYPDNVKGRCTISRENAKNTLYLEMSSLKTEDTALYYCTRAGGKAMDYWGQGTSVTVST VL: DIVLTQSPATLSVIPGNSVSLSCRASQSIRDNLHWYQQKSHESPRLLINYASQSISGIPSRFSGSGSGTDFTLTINSVETEDFGIYFCQQFNSWPLTFGGGTKLELK" reported_measurement=0.288
binder="humanized antibody huC1C1-V3 (antibody, human IgG1, kappa, V domains shown, Human IgG1/kappa) VH: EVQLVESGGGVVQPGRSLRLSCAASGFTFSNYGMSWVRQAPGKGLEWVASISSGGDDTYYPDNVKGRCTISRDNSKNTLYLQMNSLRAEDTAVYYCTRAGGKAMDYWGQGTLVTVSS VL: EIVLTQSPATLSLSPGERATLSCRASQSIRDNLHWYQQKPGQAPRLLINYASQSISGIPARFSGSGSGTDFTLTISSLEPEDFAVYFCQQFNSWPLTFGQGTKVEIKR" reported_measurement=0.083
